# Method Summary: DRUGMATRIX: Calcium Channel Type L, Dihydropyridine radioligand binding (ligand: [3H] Nitrendipine)
# Type: cell membranes, Rattus norvegicus, Wistar, Cerebral cortex, Membrane
# Measurement Setup: Not Active = under 50% inhibition at 10 µM; read-out: IC50
pIC50: −log10 of the molar value.

{"Compound String": "COC(=O)C1=C(C)NC(C)=C(C(=O)OC)C1c1ccccc1[N+](=O)[O-]", "pIC50": 7.32}
{"Compound String": "Fc1ccc([C@@H]2CCNC[C@H]2COc2ccc3c(c2)OCO3)cc1", "pIC50": 5.83}

* * *

# Measurement Target: UniProt P35462
# Sequence (P35462 whole entry): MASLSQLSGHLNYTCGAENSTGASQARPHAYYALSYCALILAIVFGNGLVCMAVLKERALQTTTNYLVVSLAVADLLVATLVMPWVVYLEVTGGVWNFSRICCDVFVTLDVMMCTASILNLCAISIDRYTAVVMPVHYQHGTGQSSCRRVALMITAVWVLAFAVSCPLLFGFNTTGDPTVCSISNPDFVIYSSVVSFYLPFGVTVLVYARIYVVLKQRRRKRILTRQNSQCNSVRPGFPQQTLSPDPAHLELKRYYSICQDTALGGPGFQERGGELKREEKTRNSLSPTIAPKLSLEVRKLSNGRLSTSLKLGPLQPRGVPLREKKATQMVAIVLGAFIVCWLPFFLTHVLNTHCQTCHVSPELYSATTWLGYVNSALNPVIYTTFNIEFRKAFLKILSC
# Method Summary: DRUGMATRIX: Dopamine D3 radioligand binding (ligand: [3H] Spiperone)
# Type: cell membranes, CHO, Membrane
# Measurement Setup: read-out: IC50
Each entry below carries its reported IC50.

{"Compound String": "CNCCC=C1c2ccccc2CCc2ccccc21", "Measurement Target": "UniProt P35462", "IC50 [nM]": 179}
{"Compound String": "Oc1c(Cl)cc(Cl)cc1Sc1cc(Cl)cc(Cl)c1O", "Measurement Target": "UniProt P35462", "IC50 [nM]": 4220}
{"Compound String": "Clc1ccccc1C(c1ccccc1)(c1ccccc1)n1ccnc1", "Measurement Target": "UniProt P35462", "IC50 [nM]": 2650}
{"Compound String": "CN1C[C@H](C(=O)N[C@]2(C)O[C@@]3(O)[C@@H]4CCCN4C(=O)[C@H](Cc4ccccc4)N3C2=O)C=C2c3cccc4[nH]cc(c34)C[C@H]21", "Measurement Target": "UniProt P35462", "IC50 [nM]": 4.31}
{"Compound String": "CN(C)CCCN1c2ccccc2CCc2ccc(Cl)cc21", "Measurement Target": "UniProt P35462", "IC50 [nM]": 139}

* * *

# Measurement Target: Mitogen-activated protein kinase 1 (Homo sapiens)
# Sequence (P28482 whole entry): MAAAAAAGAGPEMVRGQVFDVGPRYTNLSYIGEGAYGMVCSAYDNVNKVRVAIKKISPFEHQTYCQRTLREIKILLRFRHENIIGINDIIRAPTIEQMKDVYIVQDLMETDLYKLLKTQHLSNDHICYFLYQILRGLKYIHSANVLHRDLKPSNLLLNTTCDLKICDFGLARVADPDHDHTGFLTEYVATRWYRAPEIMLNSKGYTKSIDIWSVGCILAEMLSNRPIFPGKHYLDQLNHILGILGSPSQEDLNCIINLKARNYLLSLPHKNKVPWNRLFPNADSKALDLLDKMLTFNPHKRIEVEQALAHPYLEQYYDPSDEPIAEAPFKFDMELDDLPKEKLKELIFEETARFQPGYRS
# Method Summary: DRUGMATRIX: Protein Serine/Threonine Kinase, ERK2 enzyme inhibition (substrate: Myelin Basic Protein)
# Set-up: species or system Escherichia coli
# Measurement Setup: Not Active = under 50% inhibition at 10 µM

{"Compound String": "O=c1cc(-c2ccccc2)oc2c1ccc1ccccc12", "Measurement Target": "Mitogen-activated protein kinase 1 (Homo sapiens)", "IC50": "Not Active"}
{"Compound String": "CO[C@@H]1[C@@H](O[C@@H]2O[C@H](C)[C@@H](O[C@H]3C[C@@](C)(O)[C@@H](OC(=O)CC(C)C)[C@H](C)O3)[C@H](N(C)C)[C@H]2O)[C@@H](CC=O)C[C@@H](C)[C@@H](O)/C=C/C=C/C[C@@H](C)OC(=O)C[C@H]1O", "Measurement Target": "Mitogen-activated protein kinase 1 (Homo sapiens)", "IC50": "Not Active"}
{"Compound String": "COC1=CC(=O)C[C@@H](C)[C@]12Oc1c(Cl)c(OC)cc(OC)c1C2=O", "Measurement Target": "Mitogen-activated protein kinase 1 (Homo sapiens)", "IC50": "Not Active"}

* * *

# Measurement Target: Alpha-1B adrenergic receptor (Rattus norvegicus, UniProt P15823)
# Sequence (P15823 whole entry): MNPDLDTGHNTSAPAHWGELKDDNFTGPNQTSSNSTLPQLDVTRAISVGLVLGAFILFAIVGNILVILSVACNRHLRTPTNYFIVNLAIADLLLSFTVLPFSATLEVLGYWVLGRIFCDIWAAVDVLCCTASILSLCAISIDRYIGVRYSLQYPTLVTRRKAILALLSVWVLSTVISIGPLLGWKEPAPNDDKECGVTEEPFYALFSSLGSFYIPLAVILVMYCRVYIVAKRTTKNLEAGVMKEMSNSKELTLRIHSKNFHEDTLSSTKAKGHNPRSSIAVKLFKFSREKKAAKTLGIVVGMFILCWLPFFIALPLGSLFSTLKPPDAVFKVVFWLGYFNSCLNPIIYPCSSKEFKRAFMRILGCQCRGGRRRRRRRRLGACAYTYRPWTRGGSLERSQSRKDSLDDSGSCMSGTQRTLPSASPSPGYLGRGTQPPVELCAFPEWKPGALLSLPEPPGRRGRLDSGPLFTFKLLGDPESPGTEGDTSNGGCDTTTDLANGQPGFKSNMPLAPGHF
# Method Summary: DRUGMATRIX: Alpha-1B adrenergic receptor radioligand binding (ligand: prazosin)
# Type: cell membranes, Wistar, Liver, Membrane
# Measurement Setup: Not Active = under 50% inhibition at 10 µM

{"Compound": "Cc1ccc(C(=O)C(C)CN2CCCCC2)cc1 (stereo not given)", "IC50": "Not Active"}
{"Compound": "C/C=C1\\[C@H]2C=C(C)C[C@]1(N)c1ccc(=O)[nH]c1C2", "IC50": "Not Active"}
{"Compound": "O=[N+]([O-])c1cc([As](=O)(O)O)ccc1O", "IC50": "Not Active"}
{"Compound": "CC(C)(C)NCC(O)c1cc(O)cc(O)c1 (stereo not given)", "IC50": "Not Active"}
{"Compound": "CCC[C@@H]1C[C@@H](C(=O)N[C@@H]([C@H]2O[C@H](SC)[C@H](O)[C@@H](O)[C@H]2O)[C@@H](C)O)N(C)C1", "IC50": "Not Active"}
{"Compound": "O=C1OCCN1/N=C/c1ccc([N+](=O)[O-])o1", "IC50": "Not Active"}
{"Compound": "CCCSc1ccc2nc(NC(=O)OC)[nH]c2c1", "IC50": "Not Active"}
{"Compound": "CC(C)[C@H](N)C(=O)OCCOCn1cnc2c(=O)nc(N)[nH]c21", "IC50": "Not Active"}
{"Compound": "CCc1cccc2c3c([nH]c12)C(CC)(CC(=O)O)OCC3 (stereo not given)", "IC50": "Not Active"}
{"Compound": "NC(=O)c1ccccc1O [SALICYLAMIDE]", "IC50": "Not Active"}
